- MEASURED ON: PIK3CD (Human) (UniProt O00329)
- Sequence (O00329 whole entry, looked up): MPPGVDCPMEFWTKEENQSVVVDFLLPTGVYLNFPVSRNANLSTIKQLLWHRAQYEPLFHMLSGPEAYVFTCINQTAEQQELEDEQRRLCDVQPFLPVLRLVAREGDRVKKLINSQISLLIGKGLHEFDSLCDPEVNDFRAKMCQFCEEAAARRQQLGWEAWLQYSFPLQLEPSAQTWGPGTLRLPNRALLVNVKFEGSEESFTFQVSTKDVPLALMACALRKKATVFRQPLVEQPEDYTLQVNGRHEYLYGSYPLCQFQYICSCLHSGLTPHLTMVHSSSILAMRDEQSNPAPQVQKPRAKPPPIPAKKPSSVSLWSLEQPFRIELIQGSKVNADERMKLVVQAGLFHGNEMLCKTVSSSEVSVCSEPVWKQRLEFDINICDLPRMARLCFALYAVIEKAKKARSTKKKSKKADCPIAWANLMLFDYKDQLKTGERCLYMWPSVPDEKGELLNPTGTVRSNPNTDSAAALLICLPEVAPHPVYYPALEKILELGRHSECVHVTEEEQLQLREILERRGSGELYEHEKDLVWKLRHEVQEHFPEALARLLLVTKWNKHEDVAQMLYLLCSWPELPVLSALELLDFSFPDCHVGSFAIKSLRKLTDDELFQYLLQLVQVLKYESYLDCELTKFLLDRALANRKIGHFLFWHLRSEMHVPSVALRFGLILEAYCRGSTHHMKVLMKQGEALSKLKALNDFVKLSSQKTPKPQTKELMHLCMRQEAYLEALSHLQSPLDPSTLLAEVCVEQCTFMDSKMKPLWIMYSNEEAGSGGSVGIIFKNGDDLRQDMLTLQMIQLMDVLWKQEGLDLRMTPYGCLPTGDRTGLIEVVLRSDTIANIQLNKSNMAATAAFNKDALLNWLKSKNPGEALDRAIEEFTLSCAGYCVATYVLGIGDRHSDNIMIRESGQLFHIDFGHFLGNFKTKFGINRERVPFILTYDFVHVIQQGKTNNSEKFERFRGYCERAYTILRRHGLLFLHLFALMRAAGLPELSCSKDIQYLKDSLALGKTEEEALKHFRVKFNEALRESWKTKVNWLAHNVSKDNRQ
PARAMETER: IC50

[[record]]
smiles_entry = "Cc1ccc([N+](=O)[O-])cc1S(=O)(=O)c1nnc(-c2cnn3ccc(Br)cc23)o1"
measured_on = "PIK3CD (Human) (UniProt O00329)"
parameter = "IC50"
recorded_value = "120 nM"


====

Catalogue of IC50 values
- MEASURED ON: UniProt P42338
- Sequence (P42338 whole entry, looked up): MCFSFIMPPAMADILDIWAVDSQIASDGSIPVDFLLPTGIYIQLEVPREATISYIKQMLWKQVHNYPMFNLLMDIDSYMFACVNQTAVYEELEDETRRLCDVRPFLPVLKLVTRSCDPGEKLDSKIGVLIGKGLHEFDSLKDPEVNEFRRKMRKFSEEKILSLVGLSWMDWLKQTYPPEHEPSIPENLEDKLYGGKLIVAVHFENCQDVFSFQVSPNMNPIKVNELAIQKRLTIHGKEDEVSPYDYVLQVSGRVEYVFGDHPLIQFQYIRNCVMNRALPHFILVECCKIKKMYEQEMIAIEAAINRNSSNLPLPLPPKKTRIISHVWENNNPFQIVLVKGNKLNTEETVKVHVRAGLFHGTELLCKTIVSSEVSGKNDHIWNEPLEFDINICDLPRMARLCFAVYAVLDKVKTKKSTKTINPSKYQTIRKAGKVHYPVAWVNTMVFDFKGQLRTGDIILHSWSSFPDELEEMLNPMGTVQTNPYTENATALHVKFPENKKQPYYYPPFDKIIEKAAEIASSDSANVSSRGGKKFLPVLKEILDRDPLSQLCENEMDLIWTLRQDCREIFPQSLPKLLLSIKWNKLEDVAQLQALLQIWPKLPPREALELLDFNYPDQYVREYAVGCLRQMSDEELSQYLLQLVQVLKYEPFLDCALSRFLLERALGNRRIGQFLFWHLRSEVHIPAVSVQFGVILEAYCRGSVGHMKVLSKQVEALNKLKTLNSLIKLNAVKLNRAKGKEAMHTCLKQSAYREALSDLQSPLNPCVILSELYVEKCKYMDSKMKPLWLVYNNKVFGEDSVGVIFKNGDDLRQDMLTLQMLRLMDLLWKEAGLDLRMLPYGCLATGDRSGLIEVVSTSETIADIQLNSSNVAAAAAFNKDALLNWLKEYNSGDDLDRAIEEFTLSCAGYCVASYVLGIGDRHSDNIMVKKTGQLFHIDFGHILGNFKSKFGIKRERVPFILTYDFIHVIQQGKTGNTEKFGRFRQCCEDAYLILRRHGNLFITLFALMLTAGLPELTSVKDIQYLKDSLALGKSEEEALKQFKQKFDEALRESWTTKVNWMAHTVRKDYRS
PARAMETER: IC50 (nM)

[[record]]
smiles_entry = "Cc1ccc([N+](=O)[O-])cc1S(=O)(=O)N(C)N=Cc1cnn2ccccc12"
parameter = "IC50"
censoring_operator = ">"
recorded_value = 10000

[[record]]
smiles_entry = "CN(N=Cc1cnn2ccc(C#N)cc12)S(=O)(=O)c1cc([N+](=O)[O-])ccc1Cl"
parameter = "IC50"
censoring_operator = "="
recorded_value = 94

[[record]]
smiles_entry = "CN(N=Cc1cnn2ccc(C#N)cc12)S(=O)(=O)c1cc([N+](=O)[O-])ccc1CCc1ccccn1"
parameter = "IC50"
censoring_operator = "="
recorded_value = 5600

[[record]]
smiles_entry = "CCCCCC.Cc1ccc([N+](=O)[O-])cc1S(=O)(=O)N(C)N=Cc1cnn2ccc(I)cc12"
parameter = "IC50"
censoring_operator = "="
recorded_value = 720


Source listed as the Kinase Knowledgebase extract (Sharma et al. 2016).
